- Tested On: MAP kinase-activated protein kinase 3 (Homo sapiens) (UniProt Q16644)
- Sequence (Q16644 whole entry, looked up): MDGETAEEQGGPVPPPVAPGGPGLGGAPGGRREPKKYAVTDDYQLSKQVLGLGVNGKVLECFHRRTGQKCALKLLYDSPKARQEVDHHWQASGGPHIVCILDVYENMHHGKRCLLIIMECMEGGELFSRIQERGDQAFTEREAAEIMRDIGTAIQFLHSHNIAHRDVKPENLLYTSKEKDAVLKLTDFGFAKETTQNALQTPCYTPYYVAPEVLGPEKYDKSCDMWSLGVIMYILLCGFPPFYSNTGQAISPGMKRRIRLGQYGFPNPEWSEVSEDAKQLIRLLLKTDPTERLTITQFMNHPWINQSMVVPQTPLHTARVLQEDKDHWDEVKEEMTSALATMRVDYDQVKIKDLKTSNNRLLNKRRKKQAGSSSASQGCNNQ
- Condition Label: at 0.1 µM
- Description: GSK_PKIS: MAPKAPK3 mean inhibition at 0.1 uM [Nanosyn]
Exercise: state measured inhibition for each of the compounds provided.
Give bare numbers, in %.

{"columns": ["Input Smiles", "Unit Info", "inhibition"],
 "data": [
  ["c1ccc(Nc2ncc(-c3ccccc3)o2)cc1", "%", 4.43],
  ["Nc1nccc(-c2c(-c3ccc(F)cc3)nn3cc(C(F)(F)F)ccc23)n1", "%", 5.47],
  ["CN(C)c1cc2c(Nc3ccc4c(cnn4Cc4ccccc4)c3)ncnc2cn1", "%", 2.73],
  ["COc1cccc(-n2ncc3c(N/N=C/c4ccc(C)cc4)ncnc32)c1", "%", -0.57],
  ["Nc1nccc(-c2c(-c3ccc(F)cc3)ncn2CCCN2CCOCC2)n1", "%", 9.94]
]}

# input for lookup
### Prompt Please report the recorded inhibition for COc1cccc(-n2nc(C)c3c(N/N=C(\C)c4ccncc4)ncnc32)c1 .
### Response 0.03

###

- Test system: Tyrosine-protein kinase ABL1 (Homo sapiens), P00519 [T315I]
- Condition Label: at 1 µM
Would you mind telling me the reported inhibition of each entry?
Give bare numbers, in %.

Record inhibition per entry; entries follow.
1. c1ccc(Nc2ncc(-c3ccccc3)o2)cc1
2. N#Cc1c(NC(=O)c2ccccc2F)sc2c1CCCC2
3. CS(=O)(=O)CCNCc1nc(-c2ccc3ncnc(Nc4ccc(OCc5cccc(C(F)(F)F)c5)cc4)c3c2)cs1
4. CCS(=O)(=O)c1ccc(OC)c(Nc2nccc(N(C)c3ccc4c(C)n[nH]c4c3)n2)c1

### Response
1: 7.7; 2: 0.12; 3: 1.2; 4: 15

Batch of 5 compounds: report inhibition for each.
1. Cc1nc(-c2ccccc2)n2nc(NCCCN3CCOCC3)ncc12
2. c1ccc(Cc2nc3ccc(Nc4ncnc5ccccc45)cc3[nH]2)cc1
3. O=C1Nc2ccc(-c3cccnc3)cc2C1=Cc1cc(Br)c(O)c(Br)c1
4. CN(C)c1cc2c(Nc3ccc4c(cnn4Cc4ccccc4)c3)ncnc2cn1
5. COc1cc(Nc2nccc(-c3cnn4ncccc34)n2)cc(OC)c1

### Response
1: 7.48; 2: 4.4; 3: 2.94; 4: -1.27; 5: 40.3

### Prompt Any idea what its inhibition is? The compound is NS(=O)(=O)c1ccc(-c2cc3ccncc3cc2OCc2ccccc2)cc1
### Response 3.49

###

Field: inhibition. Provide a value for each of the compounds that follow.
- Tested On: Vascular endothelial growth factor receptor 3 (Homo sapiens) (UniProt P35916)
- Sequence (P35916 whole entry): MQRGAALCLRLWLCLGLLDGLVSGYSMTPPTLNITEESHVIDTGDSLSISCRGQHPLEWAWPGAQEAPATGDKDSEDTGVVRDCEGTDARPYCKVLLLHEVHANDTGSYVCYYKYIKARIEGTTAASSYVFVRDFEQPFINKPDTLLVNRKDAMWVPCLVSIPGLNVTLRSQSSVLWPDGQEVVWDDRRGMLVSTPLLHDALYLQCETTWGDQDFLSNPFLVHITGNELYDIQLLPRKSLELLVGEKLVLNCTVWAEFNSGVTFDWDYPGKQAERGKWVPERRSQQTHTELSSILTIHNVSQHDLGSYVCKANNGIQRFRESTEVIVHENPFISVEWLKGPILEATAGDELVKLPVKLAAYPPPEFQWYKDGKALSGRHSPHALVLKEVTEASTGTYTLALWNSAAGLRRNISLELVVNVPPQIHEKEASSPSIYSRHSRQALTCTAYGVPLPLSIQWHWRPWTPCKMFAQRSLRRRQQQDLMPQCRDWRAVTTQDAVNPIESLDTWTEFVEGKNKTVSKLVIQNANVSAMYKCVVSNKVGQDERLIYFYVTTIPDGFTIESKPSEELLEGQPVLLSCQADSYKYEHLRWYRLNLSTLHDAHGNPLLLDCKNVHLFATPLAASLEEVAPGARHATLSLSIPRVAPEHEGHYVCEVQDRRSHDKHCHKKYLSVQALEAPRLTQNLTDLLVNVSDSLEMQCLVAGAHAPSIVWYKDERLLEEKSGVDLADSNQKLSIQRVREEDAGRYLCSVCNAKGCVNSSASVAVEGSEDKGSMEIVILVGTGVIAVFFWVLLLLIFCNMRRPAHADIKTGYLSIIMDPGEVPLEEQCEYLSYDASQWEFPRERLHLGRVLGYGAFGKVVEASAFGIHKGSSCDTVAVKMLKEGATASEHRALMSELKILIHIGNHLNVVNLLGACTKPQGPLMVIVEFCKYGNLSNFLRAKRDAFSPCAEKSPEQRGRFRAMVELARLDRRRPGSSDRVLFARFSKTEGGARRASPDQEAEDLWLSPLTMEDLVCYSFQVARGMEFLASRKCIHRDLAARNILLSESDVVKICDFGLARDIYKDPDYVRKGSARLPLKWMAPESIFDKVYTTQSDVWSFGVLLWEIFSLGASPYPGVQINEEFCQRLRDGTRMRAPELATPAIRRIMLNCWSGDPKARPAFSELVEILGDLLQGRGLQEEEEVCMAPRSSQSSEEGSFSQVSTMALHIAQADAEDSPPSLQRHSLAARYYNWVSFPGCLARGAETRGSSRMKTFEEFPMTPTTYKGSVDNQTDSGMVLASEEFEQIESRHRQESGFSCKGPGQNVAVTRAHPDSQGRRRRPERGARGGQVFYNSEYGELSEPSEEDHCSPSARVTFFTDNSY
- Condition Label: at 0.1 µM
- Description: GSK_PKIS: FLT4 mean inhibition at 0.1 uM [Nanosyn]
One number for each entry, in %.

Example entries and their recorded answers appear below.
{"columns": ["Input Smiles", "Tested On", "inhibition (%)"],
 "data": [
  ["Cc1ccc2c(-c3ccnc(Nc4ccc5c(c4)OCCO5)n3)c(-c3ccc(C(F)(F)F)cc3)nn2n1", "Vascular endothelial growth factor receptor 3 (Homo sapiens) (UniProt P35916)", -1.78],
  ["Cc1ccc(C(=O)NC2CC2)cc1-c1ccc2[nH]ncc2c1", "Vascular endothelial growth factor receptor 3 (Homo sapiens) (UniProt P35916)", -0.16],
  ["c1ccc(Nc2ncc(-c3ccccc3)o2)cc1", "Vascular endothelial growth factor receptor 3 (Homo sapiens) (UniProt P35916)", 3.79]
]}

Please state, for each entry, its recorded inhibition.
1. NC(=O)c1sc(-n2cnc3ccccc32)cc1OCc1ccccc1Br
2. FC(F)(F)c1ccc(-c2nn3ncccc3c2-c2ccnc(Nc3ccc4c(c3)OCCO4)n2)cc1
3. COc1ccc2ncnc(Nc3ccc(OCc4ccccc4)cc3)c2c1

### Response
1. 2.98
2. -2.47
3. -0.47
